Values were extracted from ChEMBL document CHEMBL1201862.

# Tested on: MCF7
# Protocol description: NCI tumour cell line growth inhibition, 48 h
Calls of active or inactive are those of the source. Cut-off read from the data, not from the text of the source: active = GI50 up to about 1.1 µM and inactive = higher.
Entries annotated with measured GI50

Known GI50 results, listed for orientation:
Molecule	GI50
CCN(CC)c1ccc(C2SCC(=O)N2c2ccc(NC(=O)c3ccc(N4C(=O)CSC4c4ccc(N(CC)CC)cc4)cc3)cc2)cc1 (centres undefined)	79.4 µM (inactive)
COc1cccc(CCn2c(N)c(-c3ccccc3)c3ccc([N+](=O)[O-])cc3c2=O)c1	3.46 µM (inactive)

Task: Consider the molecule CCCCCCCCCCCCCCCCOCC(COP(=O)(O)OCC1OC(n2cc(CC)c(=O)[nH]c2=O)CC1O)OC(=O)CCCCCCCCCCCCCCC (centres undefined) and give its recorded GI50.
Result: > 100 µM (inactive)

Task: Consider the molecule O=C1CC(/C=C/c2ccco2)=C(O)C1=O and give its recorded GI50.
Result: 7.01 µM (inactive)

###

# System: HCT-15
Experimental readout: GI50

Known GI50 results, listed for orientation:
Compound string	GI50
C[N+]1(CCCC[N+]2(C)CCCCCCC2)CCCCCCC1	> 100 µM
CCOC(=O)CC(=O)ON(C)C(=O)Cc1ccccc1	> 100 µM

Now turn to the next molecule.
Task: Recall the reported GI50 of CCOc1ccccc1NC(=O)CCC(=O)NN when tested on HCT-15.
Result: > 100 µM

###

# Tested on: SW-620
# Protocol description: NCI tumour cell line growth inhibition, 48 h
Activity calls are given as the source filed them. No stated cut-off is given here; in the data, active = GI50 up to about 1.1 µM and inactive = higher.
Experimental readout: GI50

Known GI50 results, listed for orientation:
Molecule	Recorded measurement
COc1cc(C(O)CCBr)c(OC)cc1C (stereo not given)	3.13 µM (inactive)
NC(=O)Nc1ccc(S(=O)(=O)Nc2ccc(S(N)(=O)=O)cc2)cc1	> 100 µM (inactive)
COC(=O)c1ccc(C)cc1C1CN=NC12Cc1c(C)cccc1C2=O (stereo not given)	58.9 µM (inactive)
CN1CCN(c2ccc3[nH]c(-c4ccc5[nH]c(-c6ccc(O)cc6)nc5c4)nc3c2)CC1	102 µM (inactive)

Now turn to the next molecule.
Task: Consider the molecule COc1ccc(/C=C/C(=N\NC(=O)c2ccccc2)c2sc(Nc3ccc([N+](=O)[O-])cc3)nc2C)cc1OC and give its recorded GI50.
Result: 16 µM (inactive)

###

# System: HOP-62
# Protocol description: NCI tumour cell line growth inhibition, 48 h
The source made the active and inactive calls. Cut-off read from the data, not from the text of the source: active = GI50 up to about 1.1 µM and inactive = higher.
Experimental readout: GI50

Molecule	System under test	GI50
COc1ccc(/C(Cl)=C(\CN(C)C)c2ccc(OC)c(OC)c2)cc1OC.[B]	HOP-62	24.3 µM (inactive)
CC1=C(C(=O)NNC(=O)C(N)=O)CC(C(=O)NNC(=O)C(N)=O)=C(C)N1	HOP-62	> 100 µM (inactive)
COC(=O)C1Cc2ccc(C)cc2C1=O (stereo unspecified)	HOP-62	> 100 µM (inactive)
C(=C/c1ccc2nc(-c3ccc(/C=C/C=N/NC4=NCCCN4)cc3)cn2c1)/C=N/NC1=NCCCN1	HOP-62	> 100 µM (inactive)
O=[N+]([O-])c1cccc(-c2oc(/C=N/c3ccccc3)c([N+](=O)[O-])c2-c2cccc([N+](=O)[O-])c2)c1	HOP-62	> 100 µM (inactive)
Nc1cc(Cl)cc2cc(Cl)cnc12	HOP-62	> 100 µM (inactive)

Task: Recall the reported GI50 of Cc1ccc([S+]([O-])c2ccccc2[N+](=O)[O-])cc1 (stereo unspecified) when tested on HOP-62.
Result: > 100 µM (inactive)

Task: Recall the reported GI50 of NC(=O)Nc1ccc(S(=O)(=O)Nc2ccc(S(N)(=O)=O)cc2)cc1 when tested on HOP-62.
Result: > 100 µM (inactive)

Task: Recall the reported GI50 of Clc1ccc2c(Cl)nc(-c3ccccc3)nc2c1 when tested on HOP-62.
Result: 53.2 µM (inactive)

Task: Recall the reported GI50 of CC(C)(C)C(=O)/C=C/c1ccc(Oc2ccccc2)cc1 when tested on HOP-62.
Result: 27.4 µM (inactive)

Task: Recall the reported GI50 of COc1cc(/C=C2/SC(c3ccccc3)N(c3cccc(Cl)c3)C2=O)cc(OC)c1OC (stereo unspecified) when tested on HOP-62.
Result: 39.8 µM (inactive)

Task: Recall the reported GI50 of CNC(=O)OCc1nc(SC)n(C)c1COC(=O)NC when tested on HOP-62.
Result: 38.5 µM (inactive)

Task: Recall the reported GI50 of O=C1/C(=C/c2cccc([N+](=O)[O-])c2)CCCc2ccccc21 when tested on HOP-62.
Result: 15.6 µM (inactive)

Task: Recall the reported GI50 of c1ccc2c(c1)CCCN1CCc3ccccc3C21 (stereo unspecified) when tested on HOP-62.
Result: 50 µM (inactive)

Task: Recall the reported GI50 of CCCCOC(=O)C(=O)C(CC(CC)C(=O)c1ccccc1)C(=O)C=C(C)C (stereo unspecified) when tested on HOP-62.
Result: > 100 µM (inactive)

Task: Recall the reported GI50 of CS(=O)(=O)c1nc(-c2cc3c(c(S(C)(=O)=O)n2)CCC3)cc2c1CCCCC2 when tested on HOP-62.
Result: 16.9 µM (inactive)

Task: Recall the reported GI50 of O=C1c2ccccc2-c2c1c1ccccc1c(=O)n2-c1ccccc1 when tested on HOP-62.
Result: 4.26 µM (inactive)

Task: Recall the reported GI50 of COc1ccc(-n2/c(=N/C(=S)N(C)C)ss/c2=N\C(=S)N(C)C)cc1 when tested on HOP-62.
Result: 50.7 µM (inactive)

Task: Recall the reported GI50 of COc1ccc(OC)c2sc(N3C(=O)/C(=C/c4ccc(Cl)cc4)N=C3c3ccccc3)nc12 when tested on HOP-62.
Result: > 100 µM (inactive)

Task: Recall the reported GI50 of CSc1cc(N)ccc1/N=N/c1ccc(S(N)(=O)=O)cc1 when tested on HOP-62.
Result: 29.4 µM (inactive)

Task: Recall the reported GI50 of O=[N+]([O-])c1cccc(/C=N\NS(=O)(=O)c2ccc(Cl)cc2)c1O when tested on HOP-62.
Result: > 100 µM (inactive)
